# Species on record: Rattus norvegicus
# Assay text: Open TG-GATES - Regimen: Daily Repeat
# Format: toxicity, organism-based, Sprague-Dawley
# Parameters: regimen Daily Repeat, gender Male, age 6 weeks
# Condition details: in vivo, po, 1000 mg/kg, […], tissue Kidney, route gavage, dose level High, time 7 day
Reported KIDNEY_R values follow for various compounds

>  <Compound>
NC(N)=Nc1nc(CSCCC(N)=NS(N)(=O)=O)cs1 [FAMOTIDINE]

>  <KIDNEY_R [g]>
1.2

$$$$
>  <Compound>
CCOc1ccc(NC(=O)CC(C)O)cc1 (stereo unspecified) [BUCETIN]

>  <KIDNEY_R [g]>
1.1

$$$$
>  <Compound>
COC1=CC(=O)C[C@@H](C)[C@]12Oc1c(Cl)c(OC)cc(OC)c1C2=O [GRISEOFULVIN]

>  <KIDNEY_R [g]>
1.1

$$$$
>  <Compound>
COc1ccc2[nH]c([S+]([O-])Cc3ncc(C)c(OC)c3C)nc2c1 (stereo unspecified) [OMEPRAZOLE]

>  <KIDNEY_R [g]>
1.1

$$$$
>  <Compound>
CCOC(=O)CCC(=O)O[C@H]1[C@H](O[C@@H]2[C@@H](C)[C@H](O[C@H]3C[C@@](C)(OC)[C@@H](O)[C@H](C)O3)[C@@H](C)C(=O)O[C@H](CC)[C@@](C)(O)[C@H](O)[C@@H](C)C(=O)[C@H](C)C[C@@]2(C)O)O[C@H](C)C[C@@H]1N(C)C [ERYTHROMYCIN ETHYLSUCCINATE]

>  <KIDNEY_R [g]>
1.1

$$$$
>  <Compound>
CC(C)OC(=O)C(C)(C)Oc1ccc(C(=O)c2ccc(Cl)cc2)cc1 [FENOFIBRATE]

>  <KIDNEY_R [g]>
1.1

$$$$
